All values here come from patent US12018066.

target: SARS-CoV-2 spike protein receptor binding domain (RBD2) (SARS-CoV-2, UniProt P0DTC2 319-537); assay: SPR, immobilized antibody, RBD injected, 1:1 fit
Recorded pKd by entry
# reply with the number alone; pKd is -log10 of concentration in mol/L

Past entries and their recorded results:
Binder	Metric name	Recorded value
H01 minibody (scFv-Fc) (Fc fusion) QPGLTQPPSVSLAPGQTARITCGGNNIGSKSVHWYQQKPGQAPVLVVYDDSDRPSGIPERFSGSNAGNTATLTISRVEAGDEADYYCQVWDSRSDQYVFGTRTKLTVLSGGSTITSYNVYYTKLSSSGAQVTLKESGPVLVKPTETLTLTCTVSGFSLSNARMGVSWIRQPPGKALEWLAHIFSNGEKSYSTSLKSRLTISKDTSKSQVVLTMTNMDPVDTATYYCARTLDYYDSSGYLVGGAFDIWGQGTMVTVSS	pKd	6.55
F07 minibody (scFv-Fc) (Fc fusion) SYVLTQPPSVSVAPGQTARITCGGNNIGSKSVHWYQQKPGQAPVLVVYDDSDRPSGIPERFSGSNSGNTATLIISRVEAGDEADYYCQVWDSSSVHYVFGTGTKLTVLSGGSTITSYNVYYTKLSSSGTQVQLVQSGAEVKKPGSSVRVSCKVSGYTFTGYYMHWVRQAPGQGLEWMGIINPSGGSTSYAQKFQGRVTMTRDTSTSTVYMELSSLRSEDTAVYYCARVRVGASDAFDIWGQGTMVTVSS	pKd	7.21
B04 IgG1 (antibody, V domains shown) VH: QVQLVESGAEVKKPGASVKVSCKASGYTFTRYYMHWVRQAPGQGLEWMGIINPSGGTTSYAQKFQGRVTMTRDTSTSTVYMELSSLRSEDTAVYYCARSFGELTSFDYWGQGTLVTVSS VL: SYVLTQPPSVSVAPGKTARITCGGNNIGIRSVHWYQQKPGQAPVLVIYYDSDRPSGIPERFSGSKSGNTATLTISRVEAGDEADYYCQVWDSSSDHPVFGGGTKLTVL	pKd	6.68
D07 minibody (scFv-Fc) (Fc fusion) SYELTQPPSVSVAPGETARMTCGGNNIGTKGVHWYQQKPGQAPVLVVYDDSDRPSGIPERFSGSNAGNTATLTISRVEAGDEADYYCQVWDSRSDQYVFGTRTKLTVLSGGSTITSYNVYYTKLSSSGAQVTLKESGPVLVKPTETLTLTCTVSGFSLSNARMGVSWIRQPPGKALEWLAHIFSNGEKSYSTSLKSRLTISKDTSKSQVVLTMTNMDPVDTATYYCARTLDYYDSSGYLVGGAFDIWGQGTMVTVSS	pKd	6.87

Now for another entry.
What measured pKd goes with D11 minibody (scFv-Fc) (Fc fusion) SYELTQPPSVSVAPGQTARITCGGNNIGSKSVHWYQQKPGQAPVLVVYDDSDRPSGIPERFSGSNSGNTATLTISGTQAMDEADYYCQAWDSSTAYVFGSGTKLTVLSGGSTITSYNVYYTKLSSSGTQVQLEESGGGLVQPGGSLRLSCAASGFTFSNYAMSWVRQAPGKGLEWVSAISGSGGATFHADSVKGRFTISRDNSKNTLYLQMNSLRAEDTAVYYCARRVGYDSSGYYWSDAFDIWGQGTMVTVSS ? 6.10
